Entry source: patent US12617779B2

experiment: Evaluation of conversion rate to active form in buffer solution (Experimental Example 1); type: physicochemical; details: pH7.0, 0.5 hr, 37° C., 25 umol/L in buffer solution
assayEndpoint: Residual rate (%)
Report the figure in % without appending any unit label.

# example entries with known answers
>>> readoutnumber("CCCN(C[C@H]1CCCCN1)C(=O)Oc1cc(O)c2c(=O)cc(-c3ccccc3Cl)oc2c1[C@H]1CCN(C)C[C@H]1O [Example 6]")
63.7
>>> readoutnumber("CCCN(CC1CCCCN1)C(=O)Oc1cc(O)c2c(=O)cc(-c3ccccc3Cl)oc2c1[C@H]1CCN(C)C[C@H]1O (stereo partly drawn) [Example 9]")
73.1
>>> readoutnumber("CCN(C[C@@H]1CCCCN1)C(=O)Oc1cc(O)c2c(=O)cc(-c3ccccc3Cl)oc2c1[C@H]1CCN(C)C[C@H]1O [Example 1, ditrifluoroacetate]")
75.0
>>> readoutnumber("CN1CC[C@H](c2c(OC(=O)N(C)C[C@@H]3CCCCN3)cc(O)c3c(=O)cc(-c4ccccc4Cl)oc23)[C@H](O)C1 [Example 3]")
72.2
>>> readoutnumber("COCCN(CC1CCCCN1)C(=O)Oc1cc(O)c2c(=O)cc(-c3ccccc3Cl)oc2c1[C@H]1CCN(C)C[C@H]1O (stereo partly drawn) [Example 12]")
35.8

# input for lookup
Which Residual rate value belongs to CN1CC[C@H](c2c(OC(=O)N(CCF)CC3CCCCN3)cc(O)c3c(=O)cc(-c4ccccc4Cl)oc23)[C@H](O)C1 (stereo partly drawn) [Example 11] ?
30.1

* * *

experiment: Evaluation of conversion rate to active form in buffer solution (Experimental Example 1); type: physicochemical; conditions: pH7.4, 3 hr
assayEndpoint: Residual rate

Example entries and their recorded answers appear below.
>>> result("CNC(=O)Oc1cc(O)c2c(=O)cc(-c3ccccc3Cl)oc2c1[C@H]1CCN(C)C[C@H]1O [Comparative Example 2, reference compound]")
"0.0%"
>>> result("CCNC(=O)O[C@@H]1CN(C)CC[C@@H]1c1c(O)cc(O)c2c(=O)cc(-c3ccccc3Cl)oc12 [Comparative Example 4, reference compound]")
"97.8%"
>>> result("CN1CC[C@H](c2c(O)cc(O)c3c(=O)cc(-c4ccccc4Cl)oc23)[C@H](OC(=O)[C@@H](N)CO)C1 [Comparative Example 9, reference compound]")
"46.7%"

Moving on to the next molecule.
Which Residual rate is listed for C[C@H](N)C(=O)O[C@@H]1CN(C)CC[C@@H]1c1c(O)cc(O)c2c(=O)cc(-c3ccccc3Cl)oc12 [Comparative Example 7, reference compound] ?
5.6%

* * *

Assay: Evaluation of conversion rate to active form in buffer solution (Experimental Example 1)
Format: physicochemical
Conditions: pH6.5, 1 hr, 37° C., 25 umol/L in buffer solution
Procedure: For Examples 1 to 16 and Comparative Examples 1 to 14, the attrition rate of the test compound and the conversion rate of the test compound to Alvocidib in a buffer solution were calculated by the following method. Examples 1 to 16 and Comparative Examples 1 to 14 were each left in buffer solutions adjusted to pH 5.0, 5.5, 6.0, 6.5, 7.0 and 7.4, respectively, at a concentration of 25 umol/L at 37° C. […]
Counter-ions that a name gives are not always drawn.
assayEndpoint: Production rate of Alvocidib (%)
Numbers only; they are read as %.

>>> readoutnumber("COCCN(CC1CCCCN1)C(=O)Oc1cc(O)c2c(=O)cc(-c3ccccc3Cl)oc2c1[C@H]1CCN(C)C[C@H]1O (stereo partly drawn)")
31.8
>>> readoutnumber("CN1CC[C@H](c2c(OC(=O)N(Cc3ccccc3)CC3CCCCN3)cc(O)c3c(=O)cc(-c4ccccc4Cl)oc23)[C@H](O)C1 (stereo partly drawn)")
26.1
>>> readoutnumber("CN1CC[C@H](c2c(OC(=O)N(CCCC(F)(F)F)CC3CCCCN3)cc(O)c3c(=O)cc(-c4ccccc4Cl)oc23)[C@H](O)C1 (stereo partly drawn)")
57.1

Please look up its Production rate of Alvocidib: CCNC(=O)Oc1cc(O)c2c(=O)cc(-c3ccccc3Cl)oc2c1[C@H]1CCN(C)C[C@H]1O [Comparative Example 1, reference compound]
99.0

Which Production rate of Alvocidib is listed for CCN(CC1CCCCN1)C(=O)Oc1cc(O)c2c(=O)cc(-c3ccccc3Cl)oc2c1[C@H]1CCN(C)C[C@H]1O (stereo partly drawn) [Example 7, dihydrochloride] ?
16.0

Production rate of Alvocidib lookup needed for CCN(CCC1CCCCN1)C(=O)Oc1cc(O)c2c(=O)cc(-c3ccccc3Cl)oc2c1[C@H]1CCN(C)C[C@H]1O (stereo partly drawn) , thanks.
25.3
